molecular target: Left-right determination factor 2 (Homo sapiens) (UniProt O00292); test: LEFTY2 binders on small-molecule microarrays, primary screen, biochemical, small-molecule microarray, 635 nm fluorescence scan (AID 1110); details: LEFTY2 binding, higher = more signal
Sequence (O00292 whole entry, looked up): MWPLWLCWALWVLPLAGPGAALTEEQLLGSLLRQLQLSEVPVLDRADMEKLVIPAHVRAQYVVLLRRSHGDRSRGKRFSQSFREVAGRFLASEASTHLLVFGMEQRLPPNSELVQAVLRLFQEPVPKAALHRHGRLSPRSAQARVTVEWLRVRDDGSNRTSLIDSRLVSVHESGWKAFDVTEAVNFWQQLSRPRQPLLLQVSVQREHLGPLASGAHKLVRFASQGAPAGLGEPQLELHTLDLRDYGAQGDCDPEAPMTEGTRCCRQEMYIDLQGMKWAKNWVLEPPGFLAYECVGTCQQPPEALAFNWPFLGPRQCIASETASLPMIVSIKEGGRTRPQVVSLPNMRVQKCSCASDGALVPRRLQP
Think of 0.5 as a floor: if composite z-score stands on it or above, it is fulfilled; beneath it, not fulfilled.

compound: CON=C[C@@H](C)[C@H](OCc1ccccc1)C(C)C
measuredTarget: Left-right determination factor 2 (Homo sapiens) (UniProt O00292)
groupLabel: not fulfilled
--
compound: C[C@@H](ON=C1[C@H]2CCn3c(=O)n(-c4ccccc4)c(=O)n3[C@H]2[C@H](O)[C@@H]2O[C@H]12)c1cn([C@@H]2COC[C@H]2O)nn1
measuredTarget: Left-right determination factor 2 (Homo sapiens) (UniProt O00292)
groupLabel: fulfilled
--
compound: COC(=O)C=CCCc1coc(C=CCNC(=O)OC)n1
measuredTarget: Left-right determination factor 2 (Homo sapiens) (UniProt O00292)
groupLabel: fulfilled
--
compound: COCCNC(=O)OCC1CCCC2(CC(OC(=O)NCc3ccc4c(c3)OCO4)CC(CCC(=O)N[C@@H](C)C(=O)OC)O2)O1 (stereo not given in full)
measuredTarget: Left-right determination factor 2 (Homo sapiens) (UniProt O00292)
groupLabel: fulfilled
--
compound: CCOC(=O)NN=C1C[C@@H](O)[C@@H](O)[C@@H]2[C@@H]3C(=O)N(C(C)(C)C)C(=O)[C@@H]3CC[C@H]12
measuredTarget: Left-right determination factor 2 (Homo sapiens) (UniProt O00292)
groupLabel: not fulfilled
--
compound: C[C@@H]1CC[C@H]2C(=O)O[C@@H](Cc3ccccc3)CN2[C@H]1c1ccc(Br)cc1
measuredTarget: Left-right determination factor 2 (Homo sapiens) (UniProt O00292)
groupLabel: not fulfilled
--
compound: COC(=O)CC=C[C@@H](C)[C@@H](C=NO[C@@H](C)c1cn([C@H](CO)Cc2ccccc2)nn1)NS(=O)(=O)c1ccc(C)cc1
measuredTarget: Left-right determination factor 2 (Homo sapiens) (UniProt O00292)
groupLabel: fulfilled
--
compound: C=CC[C@@H]1C=C[C@H](ON=C(C)CCC(=O)OC[C@H]2O[C@H](c3ccccc3)C=C[C@@H]2Oc2ccc(OC)cc2)[C@@H](CO)O1
measuredTarget: Left-right determination factor 2 (Homo sapiens) (UniProt O00292)
groupLabel: not fulfilled
--
compound: CC(C)=NOC[C@@H](C)[C@H](OCc1ccccc1)C(C)C
measuredTarget: Left-right determination factor 2 (Homo sapiens) (UniProt O00292)
groupLabel: not fulfilled
--
compound: CCOC(=O)[C@H](Cc1ccccc1)NC(=O)CCC1CC(OC(=O)NCCc2ccc(F)cc2)CC2(CCCC(COC(=O)NCC3CCCCC3)O2)O1 (stereo not given in full)
measuredTarget: Left-right determination factor 2 (Homo sapiens) (UniProt O00292)
groupLabel: fulfilled
--
compound: O=C1C2=CC[C@H]3C(=O)N(c4cccc(Oc5ccccc5)c4)C(=O)[C@H]3[C@H]2[C@H](O)[C@@H]2O[C@H]12
measuredTarget: Left-right determination factor 2 (Homo sapiens) (UniProt O00292)
groupLabel: fulfilled
--
compound: O=C(NN=C1C[C@@H](O)[C@@H](O)[C@@H]2[C@@H]3C(=O)N(C[C@@H]4CCCO4)C(=O)[C@@H]3CC[C@@H]12)OCc1ccccc1
measuredTarget: Left-right determination factor 2 (Homo sapiens) (UniProt O00292)
groupLabel: fulfilled
--
compound: O=C(NN=C1C[C@@H](O)[C@@H](O)[C@@H]2[C@@H]3C(=O)N(C4CCCCC4)C(=O)[C@@H]3CC[C@H]12)OCc1ccccc1
measuredTarget: Left-right determination factor 2 (Homo sapiens) (UniProt O00292)
groupLabel: not fulfilled
--
compound: O=C1C=C[C@@H](O)[C@@H]2[C@@H]3C(=O)N(c4ccc(F)cc4F)C(=O)[C@@H]3CC[C@@H]12
measuredTarget: Left-right determination factor 2 (Homo sapiens) (UniProt O00292)
groupLabel: not fulfilled

###

molecular target: Neurogenic locus notch homolog protein 3 (Homo sapiens); test: NOTCH3 binders on small-molecule microarray, primary screen, biochemical, 635/667 nm fluorescence (AID 1096); conditions: NOTCH3 binding, 635 nm fluorescence, higher = more signal
Think of 0.7 as a floor: if composite z-score stands on it or above, it is TRUE; beneath it, FALSE.

compound: COc1cccc([C@H]2Oc3ccc(OC)cc3C(=NO[C@H](C)c3cn([C@H](CO)Cc4ccccc4)nn3)[C@@H]2O)c1
groupLabel: FALSE
//
compound: CC(C)=CCCC(C)=CCON=C1C[C@@H](O)[C@@H](O)[C@@H]2[C@@H]3C(=O)N(C4CCCCC4)C(=O)[C@@H]3CC[C@@H]12
groupLabel: FALSE
//
compound: COC(=O)CC=C[C@H](C)[C@@H](OCc1cccc(Br)c1)[C@@H](C)[C@H](OC)C1CCCCC1
groupLabel: FALSE
//
compound: COC(=O)[C@H](C)NC(=O)CCC1CC(OC(=O)NCCc2ccc(F)cc2)CC2(CCCC(COC(=O)NCCC(C)C)O2)O1 (some centres not stated)
groupLabel: FALSE
//
compound: COc1cccc([C@H]2Oc3ccc(OC)cc3C(=NOC(C)CN3CCCCc4nc(C)c(C)cc43)[C@@H]2O)c1 (some centres not stated)
groupLabel: FALSE
//
compound: COC(=O)[C@@H]1CC[C@H](C)[C@@H](c2ccc(C)cc2)N1C(=O)c1ccc(C=NO[C@@H](C)c2cn([C@H](CO)Cc3ccccc3)nn2)cc1
groupLabel: TRUE
//
compound: CCN1C(=O)[C@@H]2[C@H]3C(=CC[C@@H]2C1=O)C1(OCCCO1)[C@H]1O[C@H]1[C@H]3O
groupLabel: TRUE
//
compound: CO[C@@H]1COC(=O)CC=C[C@@H](C)[C@@H]2C=C[C@H](O)[C@@H](COC(=O)CC=C[C@H]1C)O2
groupLabel: FALSE
//
compound: CC(CCN1CCCCc2nc(C)c(C)cc21)=NO[C@@H](C)c1cn([C@H](CO)Cc2ccccc2)nn1
groupLabel: FALSE
//
compound: CC(C)=CCCC(C)=CCON=C1C[C@@H](O)[C@@H](O)[C@@H]2[C@@H]3C(=O)N(C(C)(C)C)C(=O)[C@@H]3CC[C@@H]12
groupLabel: FALSE
//
compound: C#CCCCON=C1C[C@@H](O)[C@@H](O)[C@@H]2[C@@H]3C(=O)N(CCC(=O)OCC)C(=O)[C@@H]3CC[C@H]12
groupLabel: TRUE
//
compound: CCOC(=O)C1=NO[C@@]2(C=C(Br)C3(OCCCO3)[C@H]3O[C@H]32)C1
groupLabel: TRUE
//
compound: COC(=O)[C@@H]1CC[C@H](C)[C@@H](c2ccc(C)cc2)N1C(=O)c1ccc(C=NO[C@@H]2O[C@H](COC(C)=O)[C@@H](OC(C)=O)[C@H](OC(C)=O)[C@H]2OC(C)=O)cc1
groupLabel: TRUE
//
compound: C=CC[C@@H]1C=C[C@H](ON=C(C)CCC(=O)OC[C@H]2O[C@H](c3ccccc3)C=C[C@@H]2Oc2ccc(OC)cc2)[C@@H](CO)O1
groupLabel: FALSE
//
compound: C#CCCCON=C1C[C@@H](O)[C@@H](O)[C@@H]2[C@@H]3C(=O)N(c4cccc(Oc5ccccc5)c4)C(=O)[C@@H]3CC[C@H]12
groupLabel: FALSE

###

experiment: PSAC antagonists in infected red cells, primary screen, cell-based, P. falciparum Indochina, OD700, 18 h (AID 1157); conditions: P. falciparum Indochina infected erythrocytes, osmotic lysis OD700, 18 h; higher = more signal, called active from +8 up or from −8 down
Recorded z-score, one value per entry.

molecule: C#CCCCON=C1C[C@@H](O)[C@@H](O)[C@@H]2[C@@H]3C(=O)N(CCC(=O)OCC)C(=O)[C@@H]3CC[C@H]12
z-score: -1.51
//
molecule: CC(C)CON=C1C[C@@H](O)[C@@H](O)[C@@H]2[C@@H]3C(=O)N(C(C)(C)C)C(=O)[C@@H]3CC[C@H]12
z-score: -0.089
//
molecule: O=C1OCCC=C1C(O)CCc1ccccc1 (centres undefined)
z-score: -0.193
//
molecule: CCOC(=O)[C@H](Cc1ccccc1)NC(=O)OC1CC(CCC2CC(CC)=NO2)OC2(CCCC(COC(=O)NCCC(C)C)O2)C1 (some centres undefined)
z-score: -0.39
//
molecule: CC(C)=CCCC(C)=CCON=C1C[C@@H](O)[C@@H](O)[C@@H]2[C@@H]3C(=O)N(C(C)(C)C)C(=O)[C@@H]3CC[C@H]12
z-score: -0.138
//
molecule: COc1ccc(O[C@H]2C=C[C@@H](c3ccccc3)O[C@@H]2CON=CC[C@@H]2C=C[C@H](OC(C)=O)[C@@H](COC(C)=O)O2)cc1
z-score: 0.662
//
molecule: CO[C@H]1COC(=O)[C@H](C)NC(=O)CC=C[C@@H](C)[C@H](OC)COC(=O)[C@@H](OCc2ccccc2)C=C[C@@H]1C
z-score: 0.378
//
molecule: CON=CC[C@@H]1C=C[C@H](OC(C)=O)[C@@H](COC(C)=O)O1
z-score: 0.245
//
molecule: CC(=O)OC[C@H]1O[C@H](CC=NO[C@H](C)c2cn([C@H](CO)Cc3ccccc3)nn2)C=C[C@@H]1OC(C)=O
z-score: 0.391
